Test: Acute toxicity test, subcutaneous injection
Details: mouse, in vivo, sc, male C57BL/6 mice, dead mice counted through 1-7 days
parameter: LD50

INSERT INTO assay_data (smi, parameter, measured) VALUES
  ('CN[C@@H]1[C@@H](O)[C@@H](O[C@@H]2[C@@H](O)[C@H](O[C@H]3O[C@H]([C@@H](C)O)[C@@H](O)[C@H](O)[C@H]3N)[C@@H](N)C[C@H]2N)OC[C@]1(C)O', 'LD50', '~3800 mg/kg');
